Assay: chemical genetic growth profiling, strain panel (AID 1159580);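 note: tested at 20 µM; growth read once vehicle control cultures reached saturation at 30 °C; 1 = growth at the plate median or of vehicle wells; lower values mean less growth of the strain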
Conditions: S. cerevisiae deletion strains, growth OD, locus YNL322C, strain KRE1, active compounds read low
About 2,000 (36%) of roughly 5,500 compounds were called active. Roughly 18% stayed inconclusive and do not appear here. Some of the results follow.
PROPERTY_LABEL: normalized growth
Reply briefly: the number, and no unit.

>  <RECORD_SMILES>
O=C1c2ccc(O)cc2O[C@H](c2cc(O)c(O)c(O)c2)[C@H]1O

>  <PROPERTY_LABEL>
normalized growth

>  <RECORDED_RESULT>
1.01

$$$$

Task: I would be grateful if you could share the reported normalized growth for O=C(O)CSCc1ccccc1 .
Output: 0.991

---

Measured normalized growth of individual entries
Experiment: chemical genetic growth profiling, strain panel (AID 1159580);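 note: tested at 20 µM; growth read once vehicle control cultures reached saturation at 30 °C; 1 = growth at the plate median or of vehicle wells; lower values mean less growth of the strain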
Conditions: S. cerevisiae deletion strains, growth OD, locus YPL241C, strain CIN2, active compounds read low
In all, about 5,500 compounds went through this assay and about 2,000 (36%) were called active. Roughly 18% stayed inconclusive and do not appear here. The list shows a part of the results.
Reply briefly: the number, and no unit.

Record excerpt, results attached:
>  <COMPOUND>
CCN(CC)Cc1ccc(Nc2ccnc3cc(Cl)ccc23)cc1O

>  <RECORDED_RESULT>
1.01

$$$$
>  <COMPOUND>
C=CC1(C)CC(=O)C2(O)C(C)(O1)C(OC(C)=O)C(O)C1C(C)(C)CCC(O)C12C (stereo not given)

>  <RECORDED_RESULT>
0.998

$$$$
>  <COMPOUND>
C/C=C(\C)C(=O)O[C@H]1C[C@@H](OC(C)=O)[C@@]2(C(=O)OC)CO[C@@H]3C2[C@]12CO[C@](O)(C(=O)OC)[C@H]2[C@](C)(C12O[C@@]1(C)[C@H]1C[C@@H]2OC2OC=C[C@@]21O)[C@@H]3O (stereo not given in full)

>  <RECORDED_RESULT>
1

$$$$
>  <COMPOUND>
COc1ccc(C2CNC(=O)C2)cc1OC1CCCC1 (stereo not given)

>  <RECORDED_RESULT>
1

$$$$

Task: I would be grateful if you could share the reported normalized growth for c1ccc2c(c1)sc1ccccc12 .
Output: 0.999

Task: Further, for NC(CCCCCP(=O)(O)O)C(=O)O (stereo not given) ?
Output: 0.98

Task: Further, for Cc1cc(=O)n2[nH]cnc2n1 ?
Output: 1.01

Task: Further, for COc1ccc2c(c1)OC1(O)COc3cc(OC)c(OC)cc3C1=C2 (stereo not given) ?
Output: 1

Task: Further, for O=c1c(-c2ccc(O)cc2)coc2cc(O)ccc12 ?
Output: 1

Task: Further, for O=c1[nH]c(=O)c2nc3ccccc3nc2[nH]1 ?
Output: 1

Task: Further, for CNCCC(Oc1ccc(C(F)(F)F)cc1)c1ccccc1 (stereo not given) ?
Output: 1

Task: Further, for CCCOc1ccccc1/C=N\NC(=S)Nc1cccc(F)c1 ?
Output: 0.996

Task: Further, for Nc1cc(=O)[nH]c(N)n1 ?
Output: 1.01

Task: Further, for O=C1C(Cl)=C(Cl)C(=O)C(Cl)=C1Cl ?
Output: 0.995

Task: Further, for NCCC(O)C(=O)NC1CC(N)C(OC2OC(CN)C(O)C(O)C2N)C(OC2OC(CO)C(O)C2O)C1O (stereo not given) ?
Output: 1.01

Task: Further, for CNC(=O)[C@H]1O[C@@H](n2cnc3c(NCc4cccc(I)c4)ncnc32)C(O)[C@H]1O (stereo not given in full) ?
Output: 1
